src = PubChem BioAssay (NCATS)

experiment: BET inhibitor-based combinations targeting novel dependencies in MECOM-rearranged (r) AML: OCI-AML3 cell line (AID 2202232); details: CellTiter-Glo luminescence, 48 h; OCI-AML3 viability; series mostly up to 46 µM; note: nearly all actives have a fitted effect of over 35% in size
Records with an inconclusive call do not appear. Activity calls are given as the source filed them. Calls come from the whole dose curve; as a rule, active = well fitted inhibition curve with a large enough effect; inconclusive = small, poorly fitted or top-dose-only effect; inactive = no such curve, though single readings can be large or run the other way.
Classes used: Y for active, N for inactive

- compound: "CC1CCN(c2cc(N3CCN(C)CC3)ccc2NC(=O)c2cc(C#N)c[nH]2)CC1"
  assigned class: "Y"
- compound: "Nc1nc(Nc2ccc(S(N)(=O)=O)cc2)nn1C(=O)c1c(F)cccc1F"
  assigned class: "Y"
- compound: "NC(=O)c1cnccn1"
  assigned class: "N"
- compound: "COc1cc(CNC(=O)CCCC/C=C/C(C)C)ccc1O"
  assigned class: "N"
- compound: "COc1ccc(C2CNC(=O)C2)cc1OC1CCCC1 (stereo not drawn)"
  assigned class: "N"
- compound: "COc1cc2nc(N3CCCN(C)CC3)nc(NC3CCN(Cc4ccccc4)CC3)c2cc1OC"
  assigned class: "Y"
- compound: "CC1(COc2ccc3c(c2)ncn3-c2ccc3cccc(N4CCC(N)CC4)c3n2)COC1"
  assigned class: "Y"
- compound: "Nc1ncnc2c1nc(Cl)n2[C@@H]1O[C@H](CO)[C@@H](O)[C@@H]1O"
  assigned class: "Y"
- compound: "CC(C)(C#N)c1cc(Cn2cncn2)cc(C(C)(C)C#N)c1"
  assigned class: "N"
- compound: "O=S(=O)(c1cccc2c(I)cccc12)N1CCCNCC1"
  assigned class: "Y"
- compound: "COc1cccc2cc(-c3nc(C4CCC(C(=O)O)CC4)n4ncnc(N)c34)[nH]c12 (stereo not drawn)"
  assigned class: "Y"
- compound: "CNC(=O)c1cc(Oc2ccc(NC(=O)Nc3cc(C(C)(C)C)nn3-c3ccc4ncccc4c3)c(F)c2)ccn1"
  assigned class: "Y"
- compound: "NC(=O)c1cccnc1"
  assigned class: "N"
- compound: "CN1C(C(=O)Nc2ccccn2)=C(O)c2ccccc2S1(=O)=O"
  assigned class: "N"
- compound: "Nc1ncn([C@@H]2O[C@H](CO)[C@@H](O)[C@H]2O)c(=O)n1"
  assigned class: "Y"
- compound: "CN(C)CCOC(c1ccccc1)c1ccccc1"
  assigned class: "N"
- compound: "Cc1c(F)cc(C(=O)NC2CC2)cc1-c1ccc(C(=O)NCC(C)(C)C)cn1"
  assigned class: "N"
- compound: "C=C1C[C@@]2(O)O[C@@]3(C[C@H]2C(C)C)[C@@H](C)CC[C@@H]13"
  assigned class: "N"
- compound: "C[C@@H](CN1CC(=O)NC(=O)C1)N1CC(=O)NC(=O)C1"
  assigned class: "Y"
- compound: "Cc1nc([C@](C)(O)CO)sc1-c1cnc(N)c(O[C@H](C)c2cc(F)ccc2-n2nccn2)c1"
  assigned class: "Y"
- compound: "Cc1sc2c(c1C)C(c1ccc(Cl)cc1)=N[C@@H](CC(=O)Nc1ccc(OCCOCCOCCOCCNc3cccc4c3C(=O)N(C3CCC(=O)NC3=O)C4=O)cc1)c1nnc(C)n1-2 (stereo partly drawn)"
  assigned class: "Y"
- compound: "Clc1ccc2ncc(-c3cccc(NC4CNC4)n3)n2c1"
  assigned class: "N"
- compound: "CC(C(=O)O)c1ccc2c(c1)CC(=O)c1ccccc1S2 (stereo not drawn)"
  assigned class: "N"
